Tested on: SEM cells
Test: cell viability relative to DMSO control; higher = less cytotoxic
Settings: HPLM + 10% dialyzed FBS; 48 h; 0.000781 µM
Criterion: cell viability strictly less than 90%. Met: yes (1). Not met: no (0).

CC#CCn1c(N2CCC[C@@H](N)C2)nc2c1c(=O)n(Cc1nc(C)c3ccccc3n1)c(=O)n2C | no (0)
O=C(O)c1cc(/N=N/c2ccc([S+](=O)([O-])Nc3ccccn3)cc2)ccc1O | yes (1)
CCc1ccc(/C=C2/SC(=S)NC2=O)cc1 | yes (1)

Task item: Confirm or reject: cell viability of COc1ccc2c(c1)CN(C)CC2c1ccc(Cl)c(Cl)c1 (centres undefined) lies strictly below 90%
Reply: yes (1)

Task item: Confirm or reject: cell viability of Cc1csc(-c2nnc(Nc3ccc(Oc4ncccc4-c4ccnc(N)n4)cc3)c3ccccc23)c1 lies strictly below 90%
Reply: no (0)

Task item: Confirm or reject: cell viability of Cc1cnc(Nc2ccc(F)cc2Cl)nc1-c1c[nH]c(C(=O)N[C@H](CO)c2cccc(Cl)c2)c1 lies strictly below 90%
Reply: no (0)

Task item: Confirm or reject: cell viability of Nc1ncnc2c1ncn2[C@@H]1O[C@H](CO)C[C@H]1O lies strictly below 90%
Reply: no (0)

* * *

System: SEM cells
Assay: cell viability relative to DMSO control; higher = less cytotoxic
Settings: RPMI 5 mM glucose + 10% FBS; 48 h; 0.0632 µM
Measured endpoint: cell viability (%)
// note: answer is a bare numeric in %

In the examples that follow, each entry is paired with its recorded cell viability.
CCc1ccc(/C=C2/SC(=S)NC2=O)cc1 | 97
CCCNC(=O)Nc1ccc(Oc2ncnc3cc(OC)c(OC)cc23)cc1Cl | 117
COC(=O)C\1=C(C)\N\C(=C(/C1C2=CC=CC3=NON=C23)C(=O)OC(C)C)C (stereo not given) | 101
C=C[C@H]1CN2CCC1C[C@@H]2C(O)c1ccnc2ccc(OC)cc12 (stereo not given in full) | 99.7
COc1ccc2c(c1)[C@]13CCCCC1C(C2)N(C)CC3 (stereo not given in full) | 111

Task item: Fill blank: measured cell viability of the compound Cc1csc(-c2nnc(Nc3ccc(Oc4ncccc4-c4ccnc(N)n4)cc3)c3ccccc23)c1 is ____.
Reply: 25.5

Task item: Fill blank: measured cell viability of the compound CC[C@@H]([C@H](C)O)n1ncn(-c2ccc(N3CCN(c4ccc(OCC5CO[C@@](Cn6cncn6)(c6ccc(F)cc6F)C5)cc4)CC3)cc2)c1=O (stereo not given in full) is ____.
Reply: 105

Task item: Fill blank: measured cell viability of the compound N[C@@H]1CONC1=O is ____.
Reply: 86

Task item: Fill blank: measured cell viability of the compound COc1ccc2c(c1)CN(C)CC2c1ccc(Cl)c(Cl)c1 (stereo not given) is ____.
Reply: 136

Task item: Fill blank: measured cell viability of the compound COc1cc[nH]c2ncc(C(=O)C(=O)N3CCN(C(=O)c4ccccc4)C[C@H]3C)c1-2 is ____.
Reply: 74.2

* * *

Test system: NOMO1
Test: cell viability relative to DMSO control; higher = less cytotoxic
Details: RPMI 5 mM glucose + 10% FBS; 48 h; 5.12 µM
Criterion: cell viability strictly less than 90%. Met: 1 (yes). Not met: 0 (no).

O=C(c1ccccc1)c1ccc2n1CCC2C(=O)O (centres undefined) | 0 (no)
CN1\C=N/C2=CC=C(NC3=CC(=CC=C3C)NC(=O)C4=CC(=CC=C4)C(C)(C)C#N)C=C2C1=O | 1 (yes)

Task item: Confirm or reject: cell viability of Cc1cccc(Nc2ccncc2[S+](=O)([O-])NC(=O)NC(C)C)c1 lies strictly below 90%
Reply: 1 (yes)

Task item: Confirm or reject: cell viability of C=C[C@H]1CN2CCC1C[C@@H]2C(O)c1ccnc2ccc(OC)cc12 (some centres undefined) lies strictly below 90%
Reply: 0 (no)

Task item: Confirm or reject: cell viability of COC(=O)C\1=C(C)\N\C(=C(/C1C2=CC=CC3=NON=C23)C(=O)OC(C)C)C (centres undefined) lies strictly below 90%
Reply: 1 (yes)

* * *

Test system: NOMO1
Experiment: cell viability relative to DMSO control; higher = less cytotoxic
Details: RPMI 5 mM glucose + 10% FBS; 48 h; 0.19 µM
Items are presented alongside their recorded cell viability.
// note: answer is a bare numeric in %

In the examples that follow, each entry is paired with its recorded cell viability.
CNC(=O)c1ccc(Nc2cc(Nc3ccccc3[S+](=O)([O-])C(C)C)c3cc[nH]c3n2)nc1 | 106
COc1cc[nH]c2ncc(C(=O)C(=O)N3CCN(C(=O)c4ccccc4)C[C@H]3C)c1-2 | 99.2
Cc1ccnc2c1NC(=O)c1cccnc1N2C1CC1 | 118
COC(=O)c1ccc2c(c1)NC(=O)/C2=C(\Nc1ccc(N(C)C(=O)CN2CCN(C)CC2)cc1)c1ccccc1 | 110
O=C(CCCN1CCN(c2ccc(F)cc2)CC1)NC1c2ccccc2CSc2ccccc21 (stereo not drawn) | 117

Task item: Fill blank: measured cell viability of the compound CC(C)(O)CC(=O)NCCn1ccc2ncnc(Nc3ccc(Oc4cccc(C(F)(F)F)c4)c(Cl)c3)c21 is ____.
Reply: 97.9

Task item: Fill blank: measured cell viability of the compound COc1cc2c(cc1OC)CN(CCc1ccc(NC(=O)c3cc(OC)c(OC)cc3NC(=O)c3cnc4ccccc4c3)cc1)CC2 is ____.
Reply: 118

Task item: Fill blank: measured cell viability of the compound CNc1nc(Nc2cnn([C@H]3CCN(C4COC4)C[C@@H]3F)c2Cl)ncc1C(F)(F)F is ____.
Reply: 107

* * *

System: SEM cells
Assay: cell viability relative to DMSO control; higher = less cytotoxic
Settings: HPLM + 10% dialyzed FBS; 48 h; 15.4 µM
Measured endpoint: cell viability (%)
// note: answer is a bare numeric in %

In the examples that follow, each entry is paired with its recorded cell viability.
COC1=CC=C(C(=C1)OC(C)C)C/2=N/[C@@H]([C@@H](N2C(=O)N3CCNC(=O)C3)C4=CC=C(Cl)C=C4)C5=CC=C(Cl)C=C5 | 16.1
O=C(CCCN1CCN(c2ccc(F)cc2)CC1)NC1c2ccccc2CSc2ccccc21 (centres undefined) | 118
C[C@@H](CN1CC(=O)NC(=O)C1)N1CC(=O)NC(=O)C1 | 5.86

Please examine the following record next.
Task item: Fill blank: measured cell viability of the compound CN1CCCN(CC1)C2=CC=C3C(=O)\C(=C/4SC5=C(C=CC=C5)N4C3=N2)C(=O)NCC6=CN=C(C)C=N6 is ____.
Reply: 73.6

* * *

Items are presented alongside their recorded AUC of viability dose-response curve.
Tested on: NOMO1
Test: AUC of viability dose-response curve (% viability x log10 dose units); higher = less sensitive
Settings: RPMI 5 mM glucose + 10% FBS; 48 h
Please give only the number in your answer, with no unit.

In the examples that follow, each entry is paired with its recorded AUC of viability dose-response curve.
O=C(O)C(=O)c1cn(Cc2ccccc2)c2ccc(-c3ccc(OC(F)(F)F)cc3)cc12 | 460
COC(=O)c1ccc2c(c1)NC(=O)/C2=C(\Nc1ccc(N(C)C(=O)CN2CCN(C)CC2)cc1)c1ccccc1 | 459
CC[C@H]1OC(=O)[C@H](C)C(=O)[C@H](C)[C@@H](O[C@H]2O[C@H](C)C[C@H](N(C)C)[C@H]2O)[C@](C)(OC)C[C@@H](C)C(=O)[C@H](C)[C@H]2N(CCCCn3cnc(-c4cccnc4)c3)C(=O)O[C@]12C | 447
CN1CCCN(CC1)C2=CC=C3C(=O)\C(=C/4SC5=C(C=CC=C5)N4C3=N2)C(=O)NCC6=CN=C(C)C=N6 | 468

Please examine the following record next.
Task item: For NOMO1, provide AUC of viability dose-response curve of C[C@@H]1CCO[C@H]2CN\3/C=C(/C(=O)NCC4=C(F)C=C(F)C=C4)C(=O)\C(=C3C(=O)N12)O please.
Reply: 442

* * *

System: SEM cells
Experiment: cell viability relative to DMSO control; higher = less cytotoxic
Details: RPMI 5 mM glucose + 10% dialyzed FBS; 48 h; 0.00234 µM
Measured endpoint: cell viability (%)
// note: answer is a bare numeric in %

In the examples that follow, each entry is paired with its recorded cell viability.
COC(=O)C\1=C(C)\N\C(=C(/C1C2=CC=CC3=NON=C23)C(=O)OC(C)C)C (stereo not given) | 96.9
Cc1cccc(Nc2ccncc2[S+](=O)([O-])NC(=O)NC(C)C)c1 | 104
CC(C)OC(=O)[C@H](C)N[P@](=O)(OC[C@H]1O[C@@H](N2\C=C/C(=O)NC2=O)[C@](C)(F)[C@@H]1O)OC3=CC=CC=C3 | 109
Cc1ccc([S+](=O)([O-])OCC(=O)Nc2ccc(C(=O)O)c(O)c2)cc1 | 103

Task item: For SEM cells, provide cell viability of N[C@@H]1CONC1=O please.
Reply: 81.3

Task item: For SEM cells, provide cell viability of CNC(=O)c1ccc(Nc2cc(Nc3ccccc3[S+](=O)([O-])C(C)C)c3cc[nH]c3n2)nc1 please.
Reply: 99.4

Task item: For SEM cells, provide cell viability of O=C(O)C(=O)c1cn(Cc2ccccc2)c2ccc(-c3ccc(OC(F)(F)F)cc3)cc12 please.
Reply: 94.6
